Could you please report measured inhibition for the items listed next?
TARGET UNDER TEST: Alkaline phosphatase, tissue-nonspecific isozyme (Homo sapiens) (UniProt P05186)
Sequence (P05186 whole entry, looked up): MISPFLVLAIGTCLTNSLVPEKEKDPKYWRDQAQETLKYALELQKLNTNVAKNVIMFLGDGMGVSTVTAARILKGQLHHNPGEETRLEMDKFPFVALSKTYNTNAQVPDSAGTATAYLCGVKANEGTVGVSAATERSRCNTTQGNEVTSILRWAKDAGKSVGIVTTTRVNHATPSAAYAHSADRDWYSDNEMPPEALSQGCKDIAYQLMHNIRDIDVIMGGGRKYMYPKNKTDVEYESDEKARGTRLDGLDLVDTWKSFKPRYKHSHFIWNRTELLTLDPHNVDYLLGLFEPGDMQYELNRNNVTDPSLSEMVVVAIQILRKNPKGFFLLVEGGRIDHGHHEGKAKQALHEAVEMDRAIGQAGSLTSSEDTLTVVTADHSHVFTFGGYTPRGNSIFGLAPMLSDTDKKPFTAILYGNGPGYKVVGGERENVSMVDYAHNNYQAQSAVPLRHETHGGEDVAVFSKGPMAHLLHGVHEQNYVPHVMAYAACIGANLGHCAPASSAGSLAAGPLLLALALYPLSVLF
ASSAY NOTES: human TNAP enzyme inhibitors, primary screen, biochemical, colorimetric, phosphate release readout (AID 614)
CONDITION INFO: purified TNAP, pNPP, malachite green phosphate absorbance; at 20 µM; active compounds read high
Among all 21,000 compounds or so, fewer than 10 were called active. Only a sample is shown.
Answers are plain numbers, in %.

// worked examples, inhibition included
{"MOLECULE": "C=CCNc1nc(C)nc(OC)n1", "TARGET UNDER TEST": "Alkaline phosphatase, tissue-nonspecific isozyme (Homo sapiens) (UniProt P05186)", "VALUE KIND": "inhibition", "VALUE REPORTED": -2.9}
{"MOLECULE": "CCCc1nc2c3cnn(-c4cccc(Cl)c4)c3ncn2n1", "TARGET UNDER TEST": "Alkaline phosphatase, tissue-nonspecific isozyme (Homo sapiens) (UniProt P05186)", "VALUE KIND": "inhibition", "VALUE REPORTED": -13.7}
{"MOLECULE": "COC(=O)[C@H](Cc1ccccc1)NC(=O)N1CC(C)OC(C)C1 (stereo not given in full)", "TARGET UNDER TEST": "Alkaline phosphatase, tissue-nonspecific isozyme (Homo sapiens) (UniProt P05186)", "VALUE KIND": "inhibition", "VALUE REPORTED": 6.7}

Required: inhibition, one value per molecule below.
1. c1nc(COc2nsnc2N2CCOCC2)cs1
2. CCOC(=O)C1=C(C)NC(=O)N(C(C)=O)C1c1ccc(Cl)cc1 (stereo not given)
3. CCOC(=O)CC1=CC(=O)Nc2ccccc2N1
4. Clc1ccc(CSc2nnc([C@@H]3CCCN3)o2)cc1
5. Cc1ccc2nc(-c3ccccc3)cc(C(=O)O)c2c1
6. O=S(=O)(NCc1ccccn1)c1ccc(F)cc1
7. COC(=O)COc1ccc(S(=O)(=O)Nc2ccc(NC(C)=O)cc2)cc1
8. CC1COC2C(O1)N(S(C)(=O)=O)CCN2S(C)(=O)=O (stereo not given)

Result:
[5.5, 10, 2.4, 13, 2.9, 9.6, 11.9, 3.4]

Required: inhibition, one value per molecule below.
1. O=C(NC1CCCCC1)n1c(=O)oc2cc(S(=O)(=O)N3CCCCC3)ccc21
2. COc1ccc(-c2cc(C(F)(F)F)n3nc(C(=O)N4CCOCC4)c(Cl)c3n2)cc1
3. CCCCC(CCC(=O)Nc1ccc(C(=O)OCC)cc1)C(=O)O (stereo not given)
4. CCN(CC)C(=O)CSc1nnc(-c2cnccn2)n1-c1ccc(C)cc1

Result:
6.7
6
6
2.9
